# target: N-terminal HiBiT tagged BCL6 (Homo sapiens)
# Construct: expressed in transfected cells; host or cells: HT1080 (ATCC CCL-121), stably transduced with lentivirus pLV-UBC-N-HiBiT-BCL6-PGK-puro
# experimental_details: HiBiT based degradation assay
# Format: cell-based
# settings: HT1080 cells expressing N-terminal HiBiT tagged BCL6; 5 hours of incubation; BCL6 degradation normalized with DMSO control
endpoint: Ymin (5 hr)

Examples from the recorded data:
CNC(=O)COc1cc2cc(Nc3nc(N4CCN(C[C@@H]5CCN(c6ccc7c(C8CCC(=O)NC8=O)nn(C)c7c6)C5)[C@H](C)C4)ncc3Cl)cnc2n(C(C)C)c1=O (some centres unmarked) [Compound 216d]	+++ (30% ≤ Ymin < 50%)
CNC(=O)COc1cc2cc(Nc3cc(N4CCC(CN5CCN(c6cccc7c(C8CCC(=O)NC8=O)nn(C)c67)CC5)CC4)ncc3Cl)cnc2n(C(C)C)c1=O (centres unmarked)	+++ (30% ≤ Ymin < 50%)
CNC(=O)COc1cc2cc(Nc3nc(N4CCC(CN5CCCN(c6cccc7c(C8CCC(=O)NC8=O)nn(C)c67)CC5)CC4)ncc3Cl)cnc2n(C(C)C)c1=O (centres unmarked)	+++ (30% ≤ Ymin < 50%)
CNC(=O)COc1cc2cc(Nc3nc(N4CCN(CCC5CCN(c6ccc7c(C8CCC(=O)NC8=O)nn(C)c7c6)CC5)CC4)ncc3Cl)cnc2n(C)c1=O (centres unmarked)	+++ (30% ≤ Ymin < 50%)
CNC(=O)COc1cc2cc(Nc3nc(N4CCC5(CCC(Nc6ccc7c(C8CCC(=O)NC8=O)nn(C)c7c6)CC5)CC4)ncc3Cl)cnc2n(C(C)C)c1=O (centres unmarked)	++++ (Ymin < 30%)
CNC(=O)COc1cc2cc(Nc3nc(N4C[C@@H]5[C@@H](CN6CCN(c7cccc8c(C9CCC(=O)NC9=O)nn(C)c78)CC6)[C@@H]5C4)ncc3Cl)cnc2n(C)c1=O (some centres unmarked) [Compound 136a]	++++ (Ymin < 30%)
CNC(=O)COc1cc2cc(Nc3nc(N4CC[C@@H](CN5CCN(c6ccc7c(C8CCC(=O)NC8=O)nn(C)c7c6)CC5)C4)ncc3Cl)cnc2n(C(C)C)c1=O (some centres unmarked) [Compound 218a]	+++ (30% ≤ Ymin < 50%)
CNC(=O)COc1cc2cc(Nc3nc(N4CC5(CC[C@H](Oc6ccc7c(C8CCC(=O)NC8=O)nn(C)c7c6)[C@@H](C)C5)C4)ncc3Cl)cnc2n(C(C)C)c1=O (relative stereo) [Compound 185c]	++++ (Ymin < 30%)

Query: Param item = CNC(=O)COc1cc2cc(Nc3nc(N4CCC5(CC4)CC(N4CCN(c6ccc7c(C8CCC(=O)NC8=O)nn(C)c7c6)CC4)C5)ncc3Cl)cnc2n(C(C)C)c1=O (centres unmarked) ; retrieve measured Ymin (5 hr).
Response: ++++ (Ymin < 30%)

Query: Param item = CNC(=O)COc1cc2cc(Nc3nc(N4C[C@@H](C)N(CC5CCN(c6cccc7c(C8CCC(=O)NC8=O)nn(C)c67)CC5)C[C@@H]4C)ncc3Cl)cnc2n(C(C)C)c1=O (some centres unmarked) [Compound 179b] ; retrieve measured Ymin (5 hr).
Response: +++ (30% ≤ Ymin < 50%)

Query: Param item = CNC(=O)COc1cc2cc(Nc3nc(N4CCC5(CCC(CN6CCC(c7ccc8c(C9CCC(=O)NC9=O)nn(C)c8c7F)CC6)CC5)CC4)ncc3Cl)cnc2n(C(C)C)c1=O (centres unmarked) ; retrieve measured Ymin (5 hr).
Response: ++++ (Ymin < 30%)

----------
# target: N-terminal HiBiT tagged BCL6 (Homo sapiens, UniProt P41182)
# Construct: expressed in transfected cells; host or cells: HT1080 (ATCC CCL-121), stably transduced with lentivirus pLV-UBC-N-HiBiT-BCL6-PGK-puro
# experimental_details: HiBiT based degradation assay
# Assay type: cell-based
# settings: HT1080 cells expressing N-terminal HiBiT tagged BCL6; 5 hours of incubation; four-parameter logistic model; read-out: EC50 (5 hr)
endpoint: DC50

Examples from the recorded data:
CNC(=O)COc1cc2cc(Nc3nc(N4CCC([C@@H](C)N5CCN(c6cccc7c(C8CCC(=O)NC8=O)nn(C)c67)CC5)CC4)ncc3Cl)cnc2n(C(C)C)c1=O (single isomer, unassigned) [Compound 193a]	10 to 100 nM
CNC(=O)COc1cc2cc(Nc3nc(N4CC5(CCC(Oc6ccc7c(C8CCC(=O)NC8=O)nn(C)c7c6)CC5)C4)ncc3Cl)cnc2n(C(C)C)c1=O (stereo not drawn)	< 10 nM

Consider now this further molecule.
Query: Param item = CNC(=O)COc1cc2cc(Nc3nc(N4CCC5(CC4)CC(N4CCN(c6ccc7c(C8CCC(=O)NC8=O)nn(C)c7c6)CC4)C5)ncc3Cl)cnc2n(C(C)C)c1=O (stereo not drawn) ; retrieve measured DC50.
Response: < 10 nM

----------
# target: N-terminal HiBiT tagged BCL6 (Homo sapiens)
# Construct: expressed in transfected cells; host or cells: HT1080 (ATCC CCL-121), stably transduced with lentivirus pLV-UBC-N-HiBiT-BCL6-PGK-puro
# experimental_details: HiBiT based degradation assay
# Type: cell-based
# settings: HT1080 cells expressing N-terminal HiBiT tagged BCL6; 5 hours of incubation; BCL6 degradation normalized with DMSO control
endpoint: Ymin (5 hr)

CNC(=O)COc1cc2cc(Nc3nc(N4CC5(CC[C@H](Nc6ccc7c(C8CCC(=O)NC8=O)nn(C)c7c6)[C@@H](C)C5)C4)ncc3Cl)cnc2n(C)c1=O (single isomer, unassigned) [Compound 156a]	++++ (Ymin < 30%)
CNC(=O)COc1cc2cc(Nc3nc(N4CC5(CCC(Nc6cc7c(cc6F)c(C6CCC(=O)NC6=O)nn7C)CC5)C4)ncc3Cl)cnc2n(C(C)C)c1=O (centres unmarked)	++++ (Ymin < 30%)
CNC(=O)COc1cc2cc(Nc3nc(N4CCC(CN5CCC(c6ccc7c(C8CCC(=O)NC8=O)nn(C)c7c6)CC5)CC4)ncc3Cl)cnc2n(C(C)C)c1=O (centres unmarked)	++++ (Ymin < 30%)
CNC(=O)COc1cc2cc(Nc3nc(N4CCN(CC5CCN(c6cccc7c(N8CCC(=O)NC8=O)nn(C)c67)CC5)CC4)ncc3Cl)cnc2n(C(C)C)c1=O	+++ (30% ≤ Ymin < 50%)

Consider now this further molecule.
Query: Param item = CNC(=O)COc1cc2cc(Nc3nc(N4CC5(CN(CC6CCN(c7cccc8c(C9CCC(=O)NC9=O)nn(C)c78)CC6)C5)C4)ncc3Cl)cnc2n(C)c1=O (centres unmarked) ; retrieve measured Ymin (5 hr).
Response: +++ (30% ≤ Ymin < 50%)

----------
The following compounds are shown together with reported DC50 values.
# target: N-terminal HiBiT tagged BCL6 (Homo sapiens)
# Construct: expressed in transfected cells; host or cells: HT1080 (ATCC CCL-121), stably transduced with lentivirus pLV-UBC-N-HiBiT-BCL6-PGK-puro
# experimental_details: HiBiT based degradation assay
# Format: cell-based
# settings: HT1080 cells expressing N-terminal HiBiT tagged BCL6; 5 hours of incubation; four-parameter logistic model; read-out: EC50 (5 hr)

Examples from the recorded data:
CNC(=O)COc1cc2cc(Nc3nc(N4CCC(F)(CN5CCC(c6ccc7c(C8CCC(=O)NC8=O)nn(C)c7c6)CC5)CC4)ncc3Cl)cnc2n(C(C)C)c1=O (centres unmarked)	< 10 nM
CNC(=O)COc1cc2cc(Nc3nc(N4CCC(CN5CCN(c6cccc7c(C8CCC(=O)NC8=O)nn(C)c67)[C@@H](C)C5)CC4)ncc3Cl)cnc2n(C(C)C)c1=O (some centres unmarked) [Compound 169a]	< 10 nM
CNC(=O)COc1cc2cc(Nc3nc(N4CC5(CCC(Nc6ccc(F)c7c(C8CCC(=O)NC8=O)nn(C)c67)CC5)C4)ncc3Cl)cnc2n(C(C)C)c1=O (centres unmarked)	10 to 100 nM
CNC(=O)COc1cc2cc(Nc3nc(N4CCN(CC5CCN(c6cccc7c(C8CCC(=O)NC8=O)nn(C)c67)CC5)CC4)ncc3Cl)cnc2n(CCO)c1=O (centres unmarked)	10 to 100 nM

Consider now this further compound.
Query: Param item = CNC(=O)COc1cc2cc(Nc3nc(N4CCN(CC5CCN(c6ccc7c(C8CCC(=O)NC8=O)nn(C)c7c6)CC5)C[C@H]4CO)ncc3Cl)cnc2n(C(C)C)c1=O (some centres unmarked) [Compound 151b] ; retrieve measured DC50.
Response: < 10 nM

----------
# target: N-terminal HiBiT tagged BCL6 (Homo sapiens)
# Construct: expressed in transfected cells; host or cells: HT1080 (ATCC CCL-121), stably transduced with lentivirus pLV-UBC-N-HiBiT-BCL6-PGK-puro
# experimental_details: HiBiT based degradation assay
# Assay type: cell-based
# settings: HT1080 cells expressing N-terminal HiBiT tagged BCL6; 5 hours of incubation; BCL6 degradation normalized with DMSO control
# Description: Human BCL6 protein coding open reading frame fused with N-terminal HiBiT coding sequence was synthesized from Integrated DNA Technologies (IDT). […] HT1080 cells expressing N-terminal HiBiT tagged BCL6 were dispensed into a 384-well plate pre-spotted with compounds at varying concentrations. […] After incubation, luminescence was read on a PHERAstar FSX Plate Reader (BMG). […]
endpoint: Ymin (5 hr)

Examples from the recorded data:
CNC(=O)COc1cc2cc(Nc3nc(N4CCN(CC5CCN(c6cccc7c(C8CCC(=O)NC8=O)nn(C)c67)CC5)CC4)ncc3Cl)cnc2n(CCO)c1=O (stereo not shown)	++++ (Ymin < 30%)
CNC(=O)COc1cc2cc(Nc3nc(N4CCN(CC5CCN(c6ccc7c(C8CCC(=O)NC8=O)nn(C)c7c6)CC5)CC4)ncc3F)cnc2n(C)c1=O (stereo not shown)	+++ (30% ≤ Ymin < 50%)
CNC(=O)COc1cc2cc(Nc3nc(N4CCC(O[C@H]5C[C@H](N6CCN(c7ccc8c(C9CCC(=O)NC9=O)nn(C)c8c7)CC6)C5)CC4)ncc3Cl)cnc2n(C(C)C)c1=O (stereo partly shown) [Compound 226a]	+++ (30% ≤ Ymin < 50%)
CNC(=O)COc1cc2cc(Nc3nc(N4CC[C@@H](CN5CCC(c6ccc7c(C8CCC(=O)NC8=O)nn(C)c7c6)CC5)[C@@H](F)C4)ncc3Cl)cnc2n(C(C)C)c1=O (relative stereo) [Compound 242b]	++++ (Ymin < 30%)

Query: Param item = CNC(=O)COc1cc2cc(Nc3nc(N4CCN(CC5CCN(c6ccc7c(C8CCC(=O)NC8=O)nn(C)c7c6)CC5)CC4)ncc3Cl)cnc2n(C)c1=O (stereo not shown) ; retrieve measured Ymin (5 hr).
Response: +++ (30% ≤ Ymin < 50%)

Query: Param item = CNC(=O)COc1cc2cc(Nc3nc(N4CCCN(CC5CCN(c6cccc7c(C8CCC(=O)NC8=O)nn(C)c67)CC5)CC4)ncc3Cl)cnc2n(C)c1=O (stereo not shown) ; retrieve measured Ymin (5 hr).
Response: +++ (30% ≤ Ymin < 50%)

Query: Param item = CNC(=O)COc1cc2cc(Nc3nc(N4CC5(CC[C@@H](Nc6ccc7c(C8CCC(=O)NC8=O)nn(C)c7c6)[C@@H](C(F)(F)F)C5)C4)ncc3Cl)cnc2n(C(C)C)c1=O (relative stereo) [Compound 221a] ; retrieve measured Ymin (5 hr).
Response: ++++ (Ymin < 30%)
